B1: TPR t1 (parent)
chain: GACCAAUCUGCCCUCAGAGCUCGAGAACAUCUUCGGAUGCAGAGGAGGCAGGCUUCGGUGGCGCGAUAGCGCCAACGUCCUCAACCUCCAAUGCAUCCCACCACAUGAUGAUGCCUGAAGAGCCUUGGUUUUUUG

- Variants of: B1
- experimental_details: polymerase ribozyme fitness, log enrichment relative to wild type (log ratio); higher = more active; in vitro selection for triplet polymerase activity
Decision: polymerase ribozyme fitness (log ratio) >= -3 yields yes, all other cases yield no.

{"columns": ["variant_id", "group"],
 "data": [
  ["U59C U96C", "yes"],
  ["A5G C15U C49U C62A C123A", "yes"],
  ["C40A C104U G110A C124U", "yes"],
  ["U54C A103G", "no"]
]}

Now consider the entry below.
Query: Evaluate A26U G35U C53U U112C C114U G117A : polymerase ribozyme fitness (log ratio) at minimum -3?
Result: no
